target: human CB1 receptors (Homo sapiens); construct: expressed in transfected cells; host or cells: CHO cells; experiment: In vitro cannabinoid-CB1 receptor (ant)agonism, [3H]-arachidonic acid release in CHO cells; format: cell-based
observable: EC50 (nM)

compound | observable | value
CCCCC1=NN(C(=O)N[C@@H]2C[C@H]3CC[C@H]2C3)C(C)(C)C1c1ccccc1 (relative stereo) | EC50 | 100

----------
molecular target: human cannabinoid CB1 receptors (Homo sapiens); construct: expressed in transfected cells; assay: In vitro affinity for cannabinoid-CB1 receptors ([3H]CP-55,940 radioligand binding, CHO cell membranes)
Sequence (P21554 whole entry): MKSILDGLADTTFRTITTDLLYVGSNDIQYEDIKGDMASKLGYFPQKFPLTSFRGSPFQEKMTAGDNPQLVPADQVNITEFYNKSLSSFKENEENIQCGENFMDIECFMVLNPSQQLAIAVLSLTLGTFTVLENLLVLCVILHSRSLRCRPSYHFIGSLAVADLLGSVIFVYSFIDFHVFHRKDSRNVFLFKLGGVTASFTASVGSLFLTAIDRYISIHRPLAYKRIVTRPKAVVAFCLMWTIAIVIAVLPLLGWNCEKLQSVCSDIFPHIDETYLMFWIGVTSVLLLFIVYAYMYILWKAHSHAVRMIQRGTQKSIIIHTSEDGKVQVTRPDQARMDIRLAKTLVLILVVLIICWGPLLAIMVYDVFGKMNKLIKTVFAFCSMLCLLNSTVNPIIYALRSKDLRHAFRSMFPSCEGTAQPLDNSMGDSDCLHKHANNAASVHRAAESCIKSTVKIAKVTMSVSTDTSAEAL
pKi: −log10 of the molar value.

molecule | pKi
CCCCC1=NN(C(=O)N[C@H]2C[C@H]3CC[C@]2(C)C3(C)C)C(C)(C)C1c1ccccc1 (some centres unmarked) | 7.90
CCCCC1=NN(C(=O)N[C@@H]2C[C@H]3CC[C@H]2C3)C(C)(C)C1c1ccccc1 (relative stereo) | 7.60
